# MEASURED ON: Endothelin-converting enzyme 1 (Homo sapiens, UniProt P42892)
# Sequence (P42892 whole entry): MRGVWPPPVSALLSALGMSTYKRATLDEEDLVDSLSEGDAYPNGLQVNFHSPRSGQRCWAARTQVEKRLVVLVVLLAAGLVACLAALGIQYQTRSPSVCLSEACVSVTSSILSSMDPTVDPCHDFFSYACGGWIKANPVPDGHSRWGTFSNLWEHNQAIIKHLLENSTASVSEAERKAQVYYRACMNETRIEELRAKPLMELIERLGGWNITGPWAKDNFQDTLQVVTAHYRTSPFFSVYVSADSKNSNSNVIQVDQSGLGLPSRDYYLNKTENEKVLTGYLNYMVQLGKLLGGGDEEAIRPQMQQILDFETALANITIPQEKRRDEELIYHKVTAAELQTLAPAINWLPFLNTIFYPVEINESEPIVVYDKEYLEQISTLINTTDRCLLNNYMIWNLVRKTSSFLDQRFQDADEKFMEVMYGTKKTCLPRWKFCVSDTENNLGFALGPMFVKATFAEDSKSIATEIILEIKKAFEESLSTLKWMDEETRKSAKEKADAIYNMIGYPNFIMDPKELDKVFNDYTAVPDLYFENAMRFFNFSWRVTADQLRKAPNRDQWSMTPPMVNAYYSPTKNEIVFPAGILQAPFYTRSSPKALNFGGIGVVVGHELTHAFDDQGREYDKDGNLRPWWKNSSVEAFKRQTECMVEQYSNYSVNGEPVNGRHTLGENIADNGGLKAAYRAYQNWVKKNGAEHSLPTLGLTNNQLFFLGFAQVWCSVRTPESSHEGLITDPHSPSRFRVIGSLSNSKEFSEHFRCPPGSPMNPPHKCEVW
# METHOD: Inhibition of endothelin-converting enzyme in human umbilical vein endothelial cells
# Assay type: cell-based, Endothelial cell
# CONDITIONS: endothelial cell
pIC50: −log10 of the molar value.
ASSAY ENDPOINT: pIC50

Ask: Data request, read-out pIC50, for C[C@H](O)[C@@H](NC(=O)C(Cc1ccccc1)CP(=O)(O)[C@H](Cc1ccccc1)NC(=O)OCc1ccccc1)C(=O)O (single isomer, unassigned)
Result: < 4.00

---

Here the recorded pIC50 is given for each entry.
# MEASURED ON: Endothelin-converting enzyme 1 (Homo sapiens)
# Sequence (P42892 whole entry): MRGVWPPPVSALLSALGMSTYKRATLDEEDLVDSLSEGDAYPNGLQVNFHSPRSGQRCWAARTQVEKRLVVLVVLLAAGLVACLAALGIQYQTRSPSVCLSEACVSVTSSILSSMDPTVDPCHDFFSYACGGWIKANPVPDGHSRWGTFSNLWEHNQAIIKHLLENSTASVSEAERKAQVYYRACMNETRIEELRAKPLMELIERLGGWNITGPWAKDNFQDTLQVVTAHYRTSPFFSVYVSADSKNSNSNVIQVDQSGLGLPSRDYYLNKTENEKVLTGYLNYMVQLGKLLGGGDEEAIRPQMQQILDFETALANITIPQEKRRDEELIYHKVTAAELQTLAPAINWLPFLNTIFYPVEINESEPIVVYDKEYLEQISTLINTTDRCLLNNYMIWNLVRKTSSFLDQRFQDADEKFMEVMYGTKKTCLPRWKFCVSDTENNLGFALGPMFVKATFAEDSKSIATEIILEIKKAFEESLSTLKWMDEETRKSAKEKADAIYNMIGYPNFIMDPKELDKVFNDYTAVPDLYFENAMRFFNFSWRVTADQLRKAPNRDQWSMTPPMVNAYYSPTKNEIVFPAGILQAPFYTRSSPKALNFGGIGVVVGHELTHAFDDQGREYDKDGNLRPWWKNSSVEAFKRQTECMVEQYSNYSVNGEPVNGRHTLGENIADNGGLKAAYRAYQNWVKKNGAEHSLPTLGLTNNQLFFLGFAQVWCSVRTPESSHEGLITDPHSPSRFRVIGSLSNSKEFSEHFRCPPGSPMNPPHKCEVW
# METHOD: Inhibition of endothelin-converting enzyme in human umbilical vein endothelial cells
# Type: cell-based, Endothelial cell
Remember the convention: pIC50 equals -log10 of concentration in molar.

- MOLECULE: "CCC(C)C(NC(=O)C(Cc1ccccc1)CP(=O)(O)[C@H](Cc1ccccc1)NC(=O)OCc1ccccc1)C(=O)O (mixture of isomers)"
  pIC50: 5.40
- MOLECULE: "CC(C)C(NC(=O)C(Cc1ccccc1)CP(=O)(O)[C@H](Cc1ccccc1)NC(=O)OCc1ccccc1)C(=O)O (mixture of isomers)"
  pIC50: 5.77
- MOLECULE: "NCCCCC(NC(=O)C(Cc1ccccc1)CP(=O)(O)[C@H](Cc1ccccc1)NC(=O)OCc1ccccc1)C(=O)O (mixture of isomers)"
  pIC50: 4.52
- MOLECULE: "CC(NC(=O)C(Cc1ccccc1)CP(=O)(O)[C@H](Cc1ccccc1)NC(=O)OCc1ccccc1)C(=O)O (mixture of isomers)"
  pIC50: 5.10
- MOLECULE: "CC(C)[C@@H](NC(=O)C(Cc1ccccc1)CP(=O)(O)[C@H](Cc1ccccc1)NC(=O)OCc1ccccc1)C(=O)O (mixture of isomers)"
  pIC50: 4.22
- MOLECULE: "O=C(O)[C@H](Cc1c[nH]c2ccccc12)NC(=O)[C@H](Cc1ccccc1)NP(=O)(O)CCCCc1ccccc1"
  pIC50: 6.40
- MOLECULE: "O=C(N[C@@H](Cc1ccccc1)P(=O)(O)CC(Cc1ccccc1)C(=O)NC(Cc1c[nH]c2ccccc12)C(=O)O)OCc1ccccc1 (mixture of isomers)"
  pIC50: 5.96
- MOLECULE: "CC(O)C(NC(=O)C(Cc1ccccc1)CP(=O)(O)[C@H](Cc1ccccc1)NC(=O)OCc1ccccc1)C(=O)O (mixture of isomers)"
  pIC50: 5.30
- MOLECULE: "NCCCCC(NC(=O)C(Cc1ccccc1)CP(=O)(O)[C@H](Cc1ccccc1)NC(=O)OCc1ccccc1)C(=O)O (stereo in doubt)"
  pIC50: 4.22
- MOLECULE: "O=C(N[C@@H](Cc1ccccc1)P(=O)(O)CC(Cc1ccccc1)C(=O)NC(Cc1c[nH]c2ccccc12)C(=O)O)OCc1ccccc1 (stereo in doubt)"
  pIC50: 5.24

Ask: Data request, read-out pIC50, for NC(=O)CC(NC(=O)C(Cc1ccccc1)CP(=O)(O)[C@H](Cc1ccccc1)NC(=O)OCc1ccccc1)C(=O)O (mixture of isomers)
Result: 4.70

Ask: Data request, read-out pIC50, for N=C(N)NCCCC(NC(=O)C(Cc1ccccc1)CP(=O)(O)[C@H](Cc1ccccc1)NC(=O)OCc1ccccc1)C(=O)O (mixture of isomers)
Result: 5.37

Ask: Data request, read-out pIC50, for O=C(N[C@@H](Cc1ccccc1)P(=O)(O)CC(Cc1ccccc1)C(=O)NC(Cc1ccccc1)C(=O)O)OCc1ccccc1 (mixture of isomers)
Result: 5.00

Ask: Data request, read-out pIC50, for CC(C)C(NC(=O)C(Cc1ccccc1)CP(=O)(O)[C@H](Cc1ccccc1)NC(=O)OCc1ccccc1)C(=O)O (stereo in doubt)
Result: 4.10
